- STUDY_SYSTEM: Serine protease 1 (Homo sapiens, UniProt P07477)
- Sequence (P07477 whole entry): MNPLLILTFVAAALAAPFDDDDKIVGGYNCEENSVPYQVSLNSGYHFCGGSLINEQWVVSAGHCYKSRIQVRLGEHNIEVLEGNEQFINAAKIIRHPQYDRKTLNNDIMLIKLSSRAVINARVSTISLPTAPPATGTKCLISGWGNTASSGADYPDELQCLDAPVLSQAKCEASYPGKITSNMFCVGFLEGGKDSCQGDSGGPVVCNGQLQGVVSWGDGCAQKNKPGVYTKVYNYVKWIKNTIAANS
- ASSAY_NAME: Binding affinity towards trypsin was evaluated
# pKi listing for each entry below
Scale note: pKi = -log10(concentration in M).

>  <STRUCTURE_SMILES_STRING>
Cc1ccc(NS(=O)(=O)Cc2ccccc2)c(=O)n1CC(=O)NCc1ccc(N)nc1

>  <STUDY_SYSTEM>
Serine protease 1 (Homo sapiens, UniProt P07477)

>  <pKi>
5.52

$$$$

Next, consider the following molecule.
Query string: Answer with the recorded pKi of Cc1nc(N)ccc1CNC(=O)Cn1c(C)ccc(NCCc2ccccc2)c1=O only.
Result string: 5.37

====

- ASSAY_NAME: Compound was evaluated for the half life period after iv administration in Beagle dog.
- Type: ADME, organism-based, Canis lupus familiaris
- CONDITION_DESCRIPTION: in vivo
ATTRIBUTE_MEASURED: half-life (h)
Give the value in h but do not write h after it.

Query string: Answer with the recorded half-life of Cc1nc(N)ccc1CNC(=O)Cn1c(C)ccc(NS(=O)(=O)Cc2ccccc2)c1=O.Cl only.
Result string: 1.5

====

- ASSAY_NAME: Compound was evaluated for the half life period after iv administration in cynomolgus monkey
- Assay type: ADME, organism-based
- CONDITION_DESCRIPTION: cercopithecidae, in vivo
ATTRIBUTE_MEASURED: half-life (h)
Give the value in h but do not write h after it.

Query string: Answer with the recorded half-life of Cc1nc(N)ccc1CNC(=O)Cn1c(C)ccc(NS(=O)(=O)Cc2ccccc2)c1=O.Cl only.
Result string: 2.42

====

This document collects pKi values reported for Prothrombin (Homo sapiens).
Scale note: pKi = -log10(concentration in M).

>  <STRUCTURE_SMILES_STRING>
Cc1ccc(NS(=O)(=O)Cc2ccccc2)c(=O)n1CC(=O)NCc1ccc(N)nc1

>  <REPORTED_RESULT>
7.96

$$$$
>  <STRUCTURE_SMILES_STRING>
Cc1nc(N)ccc1CNC(=O)Cn1c(C)ccc(NCCc2ccccc2)c1=O

>  <REPORTED_RESULT>
8.64

$$$$

Query string: Answer with the recorded pKi of Cc1nc(N)ccc1CNC(=O)Cn1cccc(NS(=O)(=O)Cc2ccccc2)c1=O only.
Result string: 7.59

====

- ASSAY_NAME: Compound was evaluated for the oral bioavailability after oral administration in dog.
- Type: ADME, organism-based, Canis lupus familiaris
- CONDITION_DESCRIPTION: in vivo, read-out: Bioavailabiility
ATTRIBUTE_MEASURED: bioavailability (%)
Give the value in % but do not write % after it.

Query string: Answer with the recorded bioavailability of Cc1nc(N)ccc1CNC(=O)Cn1c(C)ccc(NS(=O)(=O)Cc2ccccc2)c1=O.Cl only.
Result string: 44

====

- ASSAY_NAME: Oral bioavailability after 5 mg/kg in cynomolgus monkey was determined
- Type: ADME, organism-based
- CONDITION_DESCRIPTION: cercopithecidae, in vivo, read-out: Bioavailabiility
ATTRIBUTE_MEASURED: bioavailability
Please give the number followed by its unit.

Query string: Answer with the recorded bioavailability of Cc1nc(N)ccc1CNC(=O)Cn1c(C)ccc(NS(=O)(=O)Cc2ccccc2)c1=O.Cl only.
Result string: 19%
